The measurements presented in this section are drawn from ChEMBL document CHEMBL1130921.

- Organism: Mus musculus
- test details: Evaluated for potency in CDF1 mice and the ability of it to decrease feed consumption was determined
- Assay type: functional
Is Feed consumption at least 6 g/day? Then true (1). If not, false (0).

Solved cases (5 shown):
compound	class
CC(C)CCC[C@@H](C)[C@H]1CC[C@H]2[C@@H]3C=CC4=CC(=O)C=C[C@]4(C)[C@H]3CC[C@]12C	false (0)
CC(=O)OC1CC[C@@]2(C)C(=CC[C@H]3[C@@H]4CC[C@H]([C@H](C)CCCC(C)C)[C@@]4(C)CC[C@@H]32)C1 (stereo partly drawn)	false (0)
CC(C)CCC[C@@H](C)[C@H]1CC[C@H]2[C@@H]3CC=C4CCCC[C@]4(C)[C@H]3CC[C@]12C	true (1)
CC(C)CCC[C@@H](C)[C@H]1CC[C@H]2[C@@H]3CCC4=C(Br)C(=O)CC[C@]4(C)[C@H]3CC[C@]12C	true (1)
CC(C)CCC[C@@H](C)[C@H]1CC[C@H]2[C@@H]3CC=C4CC(OC(=O)c5ccccc5)CC[C@]4(C)[C@H]3CC[C@]12C (stereo partly drawn)	false (0)

API: above_or_equal(metric=Feed consumption, cutoff=6 g/day) for item CC(C)CCC[C@@H](C)[C@H]1CC[C@H]2[C@@H]3C[C@H](Br)C4=CC(=O)CC[C@]4(C)[C@H]3CC[C@]12C false (0)

API: above_or_equal(metric=Feed consumption, cutoff=6 g/day) for item CC(C)CCC[C@@H](C)[C@H]1CC[C@H]2[C@@H]3C=CC4=CC(=O)CC[C@]4(C)[C@H]3CC[C@]12C false (0)

API: above_or_equal(metric=Feed consumption, cutoff=6 g/day) for item CC(C)CCC[C@@H](C)[C@H]1CC[C@H]2[C@@H]3C[C@H](Br)[C@]4(Br)CC(=O)CC[C@]4(C)[C@H]3CC[C@]12C false (0)

API: above_or_equal(metric=Feed consumption, cutoff=6 g/day) for item CC(C)CCC[C@@H](C)[C@H]1CC[C@H]2[C@@H]3CCC4=CC(=O)C=C[C@]4(C)[C@H]3CC[C@]12C false (0)

API: above_or_equal(metric=Feed consumption, cutoff=6 g/day) for item CC(C)CCC[C@@H](C)[C@H]1CC[C@H]2[C@@H]3CC=C4CC(=O)CC[C@]4(C)[C@H]3CC[C@]12C [CHOLEST-5-EN-3-ONE] false (0)

* * *

- Species: Mus musculus
- test details: Compound was evaluated for its potency in CDF1 mice and the serum triglyceride levels were determined
- Assay type: ADME, organism-based
Decision: Serum triglyceride beneath 200 mg/dL gives Fulfilled; Serum triglyceride meeting or exceeding 200 mg/dL gives Not fulfilled.

Is Serum triglyceride strictly under 200 mg/dL for the entry CC(C)CCC[C@@H](C)[C@H]1CC[C@H]2[C@@H]3CCC4=CC(=O)C=C[C@]4(C)[C@H]3CC[C@]12C ? Not fulfilled

Is Serum triglyceride strictly under 200 mg/dL for the entry CC(C)CCC[C@@H](C)[C@H]1CC[C@H]2[C@@H]3CC[C@H]4CC(O)CC[C@]4(C)[C@H]3CC[C@]12C (stereo not given in full) ? Not fulfilled

Is Serum triglyceride strictly under 200 mg/dL for the entry CC(C)CCC[C@@H](C)[C@H]1CC[C@H]2[C@@H]3CC[C@@]45O[C@@H]4C(=O)CC[C@]5(C)[C@H]3CC[C@]12C ? Not fulfilled

Is Serum triglyceride strictly under 200 mg/dL for the entry CC(C)CCC[C@@H](C)[C@H]1CC[C@H]2[C@@H]3CC[C@@H]4CC(=O)CC[C@]4(C)[C@H]3CC[C@]12C ? Not fulfilled

Is Serum triglyceride strictly under 200 mg/dL for the entry CC(C)CCC[C@@H](C)[C@H]1CC[C@H]2[C@@H]3CC=C4C=C(N5CCCC5)CC[C@]4(C)[C@H]3CC[C@]12C ? Not fulfilled

Is Serum triglyceride strictly under 200 mg/dL for the entry CC(C)CCC[C@@H](C)[C@H]1CC[C@H]2[C@@H]3CCC4=CC(=O)CC[C@]4(C)[C@H]3CC[C@]12C [4-CHOLESTEN 3-ONE] ? Not fulfilled

Is Serum triglyceride strictly under 200 mg/dL for the entry CC(C)CCC[C@@H](C)[C@H]1CC[C@H]2[C@@H]3CC=C4CC(=O)CC[C@]4(C)[C@H]3CC[C@]12C [CHOLEST-5-EN-3-ONE] ? Fulfilled

Is Serum triglyceride strictly under 200 mg/dL for the entry CC(C)CCC[C@@H](C)[C@H]1CC[C@H]2[C@@H]3CC(=O)C4=CC(=O)CC[C@]4(C)[C@H]3CC[C@]12C ? Fulfilled

Is Serum triglyceride strictly under 200 mg/dL for the entry CC(=O)OC1=CC2=CC[C@H]3[C@@H]4CC[C@H]([C@H](C)CCCC(C)C)[C@@]4(C)CC[C@@H]3[C@@]2(C)CC1 ? Fulfilled
